- Test system: SR
- Procedure summary: NCI tumour cell line growth inhibition, 48 h
Active and inactive are the calls of the source. Cut-off read from the data, not from the text of the source: active = GI50 up to about 1.1 µM and inactive = higher.
Outcome codes: active, inactive

Compound: CC(=O)NC(CCC(=O)C=[N+]=[N-])C(=O)O (centres undefined)
Qualitative label: inactive

Compound: COc1cccc(C2c3cc4c(cc3OC(N3CCOCC3)C2C)OCO4)c1O (centres undefined)
Qualitative label: inactive

Compound: CCOC(=O)c1c(SCCO)n(-c2ccccc2)c(=S)n(-c2ccccc2)c1=O
Qualitative label: inactive

Compound: Cc1ccc(F)c2c(=O)cc(-c3ccccc3)[nH]c12
Qualitative label: inactive

Compound: C[N+](C)(C)CC1CCCCCCCCCCC1=O (centres undefined)
Qualitative label: inactive

Compound: COc1cc(C2c3cc4c(cc3[C@H](NS(C)(=O)=O)C3COC(=O)[C@H]23)OCO4)cc(OC)c1OC (some centres undefined)
Qualitative label: active

Compound: Cn1c(=O)n(CC(Br)CBr)c(=O)n(CC(Br)CBr)c1=O (centres undefined)
Qualitative label: inactive

Compound: Cn1c2cc(O)cc(O)c2c(=O)c2c([N+](=O)[O-])cccc21
Qualitative label: inactive

Compound: C1CSC[C@H]2COC[C@@H](CSCCS1)S2
Qualitative label: inactive

Compound: COc1c2c(c3ccccc3c1O)C1C=CC2C1 (centres undefined)
Qualitative label: inactive

Compound: COc1cc2c(cc1OC)C13CCN4CC5=CCOC(CC(=O)O)C(C5CC41)C3N2 (centres undefined)
Qualitative label: inactive

Compound: C#C[C@@]1(O)CCCC2=CC(=O)C[C@]21C
Qualitative label: inactive

Compound: CCOC(=O)/C(I)=C/c1cc(OC)c(OC)c(OC)c1
Qualitative label: inactive

Compound: CCOC(=O)c1c(SCC#N)n(-c2ccccc2)c(=S)n(-c2ccccc2)c1=O
Qualitative label: inactive

Compound: Cc1cc(NCC2CC/C(=C\C=C\c3ccccc3)C2=O)no1 (centres undefined)
Qualitative label: inactive

Compound: C=C(C)[C@H]1CC23C(=O)C(C(=O)C(C)C)=C(O)[C@](C)(C[C@H]2C1(C)C)C3=O
Qualitative label: inactive

Compound: COC(=O)C1C(O)C(C)C(O)C(C)C=C(C)C2=C3C(=C(C)C(=O)c4c(O)c(c(C)c(OC(C)=O)c43)NC(=O)C(C)=C/C=C\C(C)C(O)C(C)C1O)OCO2 (centres undefined)
Qualitative label: inactive

Compound: Cc1cc(=O)n2nc(CSc3nnc(Sc4cc(O)ccc4O)s3)sc2n1
Qualitative label: inactive

Compound: O=C(O)[C@@H]1NC[C@H]2C(Br)=NO[C@H]21
Qualitative label: inactive

###

- Test system: SK-OV-3
- Procedure summary: NCI tumour cell line growth inhibition, 48 h
The source made the active and inactive calls. No stated cut-off is given here; in the data, active = GI50 up to about 1.1 µM and inactive = higher.
Possible outcomes: t for active, f for inactive

Compound: O=C1C/C(=C/c2ccc(/C=C3/CC(=O)N(c4cccc(Br)c4)C3=O)cc2)C(=O)N1c1cccc(Br)c1
Qualitative label: f
--
Compound: COc1ccccc1OCC(=N/NC(=O)c1ccncc1)/N=C/c1ccncc1
Qualitative label: f
--
Compound: CCCCC1(C(NC(=O)c2ccccc2Cl)c2ccncc2)C(=O)N(c2ccccc2)N(c2ccccc2)C1=O (stereo unspecified)
Qualitative label: f
--
Compound: [O-][S+]1Cc2ccccc2CS1 (stereo unspecified)
Qualitative label: f
--
Compound: CN(C)CCCC12CCCCC1=Nc1ccccc12 (stereo unspecified)
Qualitative label: f
--
Compound: CC1(C)OC[C@@H](C[C@H](O)COCc2ccccc2)O1
Qualitative label: f
--
Compound: C#CCn1c(=O)c2cc(OC)c(OC)cc2n(CC#C)c1=O
Qualitative label: f
--
Compound: CN(C)c1nc(N(C)C)sc(=O)n1
Qualitative label: f
--
Compound: Clc1cc(OC2C3CC4CC(C3)CC2C4)nc(Cl)n1 (stereo unspecified)
Qualitative label: f
--
Compound: SC1=Nc2ccccc2-c2nc(-c3cccc(Cl)c3)cc(-c3ccccc3)c2C1
Qualitative label: f
--
Compound: O=C1C=C(O)c2nc(O)ccc2C1=O
Qualitative label: f
--
Compound: COc1ccc(C(=O)Cn2c(C(=O)/C=C/c3ccco3)nc3ccccc32)cc1
Qualitative label: f
--
Compound: COc1ccccc1NCc1nnc(CCCCCCCCc2nnc(CNc3ccccc3OC)o2)o1
Qualitative label: f
--
Compound: C#CCNC(=O)CCC(N)C(=O)O (stereo unspecified)
Qualitative label: f
--
Compound: C/C(N)=N/OCc1nc(C)no1
Qualitative label: f
--
Compound: CCOC(=O)c1c(SCCO)n(-c2ccccc2)c(=S)n(-c2ccccc2)c1=O
Qualitative label: f
--
Compound: CC(=O)OC[C@@H](OC(C)=O)[C@H](OC(C)=O)[C@@H]1OC(C)(C)O[C@@H]1C1SCCCS1
Qualitative label: f
--
Compound: CC(C)/C=C1\CCC(CN2CCCC2)C1=O (stereo unspecified)
Qualitative label: f
--
Compound: O=C1CC2(CCN(Cc3ccccc3)CC2)C(=O)N1N1CCCCC1
Qualitative label: f
--
Compound: CC(=N/NC(=S)Nc1c(C)n(C)n(-c2ccccc2)c1=O)/C(C)=N\NC(=S)Nc1c(C)n(C)n(-c2ccccc2)c1=O
Qualitative label: f
--
Compound: Cn1c(=O)n(CC(Br)CBr)c(=O)n(CC(Br)CBr)c1=O (stereo unspecified)
Qualitative label: f
--
Compound: COc1cc2c(cc1OCc1ccccc1)NC(=O)[C@@H]1C[C@@H](O)CN1C2=O
Qualitative label: f
--
Compound: COC(=O)N/N=C/c1oc(-c2ccccc2)c(-c2ccccc2)c1[N+](=O)[O-]
Qualitative label: f
--
Compound: Brc1ccc(C2SCc3nc4ccccc4n32)cc1 (stereo unspecified)
Qualitative label: f
--
Compound: CCOC(=O)CCC(NC(=O)N1CCN(c2c(C)nc(C)nc2O)CC1)C(=O)OCC (stereo unspecified)
Qualitative label: f
--
Compound: C=C1C(=O)C[C@H]2C(=C)C(=O)O[C@@H]2C2C1CC[C@@]2(C)O (stereo partly specified)
Qualitative label: f
--
Compound: Cc1ccc(S(=O)(=O)N2CCN(S(=O)(=O)c3ccc(C)cc3)CCN(S(=O)(=O)c3ccc(C)cc3)Cc3cc(Br)c(Br)cc3CN(S(=O)(=O)c3ccc(C)cc3)CC2)cc1
Qualitative label: f
--
Compound: Oc1[nH]c(Nc2cccc(Br)c2)nc2ncnc1-2
Qualitative label: f
--
Compound: CC(C)(C)OC(=O)N1C/C=C\C(=O)C2(OCCO2)c2ccccc21
Qualitative label: f
--
Compound: O=c1c(C(c2ccc3ccccc3c2)c2c(O)oc3ccccc3c2=O)c(O)oc2ccccc12
Qualitative label: f
--
Compound: COC1=C(C)C(=O)C2=C(C1=O)[C@@H]1[C@@H]3Cc4c(OC(=O)CO)c(C)c(OC)c(O)c4[C@H](CNC(=O)C(C)=O)N3[C@@H](C#N)[C@H](C2)N1C
Qualitative label: t
--
Compound: Cc1cc(=O)n2nc(CSc3nnc(Sc4cc(O)ccc4O)s3)sc2n1
Qualitative label: f
--
Compound: S=C1NCN2CCN(CC2)CNC(=S)C(=S)NCN2CCN(CC2)CNC1=S
Qualitative label: f
--
Compound: O=C1/C(=C/c2ccc(O)cc2)CCCC1CN1CCCCC1 (stereo unspecified)
Qualitative label: f
--
Compound: Cc1nn(C(=O)Cc2ccccc2)c2c1C(c1ccc(O)cc1)SC(=N)N2 (stereo unspecified)
Qualitative label: f
--
Compound: Cc1ccc(-n2cc(-c3ccc(Cl)cc3)c(C#N)c2N)cc1
Qualitative label: f
--
Compound: CC(=O)O[C@H]1[C@@H](N2CCCCC2)C[C@H]2[C@@H]3CC=C4C[C@@H](N5CCCC5)CC[C@]4(C)[C@H]3CC[C@@]21C
Qualitative label: f
--
Compound: O=c1cc2n(c(=O)[nH]1)C1OC(C(O)C1O)[C@H]2CCO (stereo partly specified)
Qualitative label: f
--
Compound: COC(=O)N/N=C(/CCN1CCCC1)CC(c1ccccc1)c1c(O)c2ccccc2oc1=O (stereo unspecified)
Qualitative label: f
--
Compound: N#Cc1c(O)n(-c2ccccc2)c(=O)c2c(N)n[nH]c12
Qualitative label: f
--
Compound: COc1cc(Cc2cnc(N)nc2N)cc(OC)c1OCCCNc1ccc([N+](=O)[O-])cc1
Qualitative label: f

Data provenance is ChEMBL document CHEMBL1201862.
